Each entry below lists one item and its recorded pIC50 value.
Test system: MDA-MB-453
protocolDetails: Antiproliferative activity against human MDA-MB-453 cells assessed as inhibition of cell growth measured after 72 hrs by CCK8 assay
Format: functional, cell-based
protocolConditions: MDA-MB-453, 72 h
pIC50: −log10 of the molar value.
assayEndpoint: pIC50

> print(dat)
                                   compound  valuereported
1  COC(=O)C[C@H](Cc1ccc(N)cc1)C(=O)O[C@@H]1C(OC)=C[C@]23CCCN2CCc2cc4c(cc2[C@H]13)OCO4           7.15
2  COC(=O)C[C@](O)(CCCC(C)(C)O)C(=O)O[C@@H]1C(OC)=C[C@]23CCCN2CCc2cc4c(cc2[C@H]13)OCO4 [OMACETAXINE MEPESUCCINATE]           7.68
